system: 252836-082-R-J2-PDC tumor spheroids, viability; test: Anticancer human tumor 252836-082-R-J2-PDC patient-derived head and neck squamous cell carcinoma cell line growth inhibition [PI3K]; conditions: second compound 1 µM; first compound 0.000316 µM; stronger effect = lower value; spheroids with HUVEC and MSC
I'd appreciate it if you could supply viability, T/C values for the items below.
Give bare numbers, in %.

The cases that follow already have their viability, T/C on record.
[
  {
    "compound": "CC(C)n1nc(-c2ccc3oc(N)nc3c2)c2c(N)ncnc21 + CC(Nc1ccc2c(c1)OCCn1cc(N3C(=O)OCC3C(F)F)nc1-2)C(N)=O",
    "unit-symbol": "%",
    "quantitative-readout": 46.4
  },
  {
    "compound": "Cn1ncnc1[C@H]1c2n[nH]c(=O)c3cc(F)cc(c23)N[C@@H]1c1ccc(F)cc1 + CC(Nc1ncnc2nc[nH]c12)c1cc2cccc(Cl)c2c(=O)n1-c1ccccc1",
    "unit-symbol": "%",
    "quantitative-readout": 84.8
  },
  {
    "compound": "Cn1ncnc1[C@H]1c2n[nH]c(=O)c3cc(F)cc(c23)N[C@@H]1c1ccc(F)cc1 + Cc1nc(NC(=O)N2CCCC2C(N)=O)sc1-c1ccnc(C(C)(C)C(F)(F)F)c1",
    "unit-symbol": "%",
    "quantitative-readout": 58.5
  },
  {
    "compound": "CC(C)n1nc(-c2ccc3oc(N)nc3c2)c2c(N)ncnc21 + COc1c(OCCCN2CCOCC2)ccc2c3n(c(=NC(=O)c4cnc(N)nc4)nc12)CCN3",
    "unit-symbol": "%",
    "quantitative-readout": 4.87
  },
  {
    "compound": "CC(C)n1nc(-c2ccc3oc(N)nc3c2)c2c(N)ncnc21 + Cc1nc(NC(=O)N2CCCC2C(N)=O)sc1-c1ccnc(C(C)(C)C(F)(F)F)c1",
    "unit-symbol": "%",
    "quantitative-readout": 56.5
  }
]

Please turn your attention to the following entry.
The recorded viability, T/C for CC(=O)c1c(C)c2cnc(Nc3ccc(N4CCNCC4)cn3)nc2n(C2CCCC2)c1=O + COc1c(OCCCN2CCOCC2)ccc2c3n(c(=NC(=O)c4cnc(N)nc4)nc12)CCN3 is 4.69

---

test system: 252836-082-R-J2-PDC tumor spheroids, viability; test: Anticancer human tumor 252836-082-R-J2-PDC cell line growth inhibition [PI3K]; conditions: second compound 3.16 µM; first compound 0.01 µM; stronger effect = lower value; spheroids with HUVEC and MSC;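 also: spheroids exposed to agents for seven days before readout; percent of vehicle DMSO control viability so 100% = untreated growth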
I'd appreciate it if you could supply viability, T/C values for the items below.
Numbers only, in %.

[
  {
    "compound": "CCN1CCN(Cc2ccc(Nc3ncc(F)c(-c4cc(F)c5nc(C)n(C(C)C)c5c4)n3)nc2)CC1 + CC(Nc1ncnc2nc[nH]c12)c1cc2cccc(Cl)c2c(=O)n1-c1ccccc1",
    "viability, T/C / %": 69.8
  },
  {
    "compound": "CC(C)n1nc(-c2ccc3oc(N)nc3c2)c2c(N)ncnc21 + Cc1nc(NC(=O)N2CCCC2C(N)=O)sc1-c1ccnc(C(C)(C)C(F)(F)F)c1",
    "viability, T/C / %": 40
  },
  {
    "compound": "CC(C)n1nc(-c2ccc3oc(N)nc3c2)c2c(N)ncnc21 + CC(Nc1ncnc2nc[nH]c12)c1cc2cccc(Cl)c2c(=O)n1-c1ccccc1",
    "viability, T/C / %": 64.2
  },
  {
    "compound": "CC(=O)c1c(C)c2cnc(Nc3ccc(N4CCNCC4)cn3)nc2n(C2CCCC2)c1=O + Cc1nc(NC(=O)N2CCCC2C(N)=O)sc1-c1ccnc(C(C)(C)C(F)(F)F)c1",
    "viability, T/C / %": 43.9
  }
]

The value of viability, T/C recorded for CCN1CCN(Cc2ccc(Nc3ncc(F)c(-c4cc(F)c5nc(C)n(C(C)C)c5c4)n3)nc2)CC1 + Cc1nc(NC(=O)N2CCCC2C(N)=O)sc1-c1ccnc(C(C)(C)C(F)(F)F)c1 when tested on 252836-082-R-J2-PDC tumor spheroids, viability reads 39.4

FYI, the data here is from PubChem BioAssay AID1963985.
